assay: Half life in mouse liver microsomes at 1 uM after 60 mins in presence of NADPH by LC-MS/MS analysis; format: ADME, microsome
assay-readout: half-life at 1 µM (h)

Answered examples (5):
structure | reading
CCCCC/C=C\C/C=C\CCCCCCCC(=O)N1Cc2ccccc2[C@H]1C(=O)O | 1.07
CCCCC/C=C\C/C=C\CCCCCCCC(=O)N1Cc2ccccc2[C@@H]1C(=O)O | 1.07
CCCCCCCC/C=C\CCCCCCCC(=O)N[C@@H](Cc1ccc(O)cc1)C(=O)O | 0.133
CCCCCCCC/C=C\CCCCCCCC(=O)N[C@H](C(=O)O)[C@@H](C)CC | 0.133
CCCCCCCC/C=C\CCCCCCCC(=O)N1Cc2ccccc2[C@H]1C(=O)O | 1.07

(I) CCCCCCCC/C=C\CCCCCCCC(=O)N1Cc2ccccc2[C@@H]1C(=O)O
(II) CCCCCCCC/C=C\CCCCCCCC(=O)N[C@@H](CC(C)C)C(=O)O
Of I versus II , which is the one with smaller reported half-life at 1 µM? Pick one; state its label.
II
